Provenance of the data: ChEMBL document CHEMBL4477215

measurement.description: Half life in rat at 10 mg/kg, po
Format: ADME, organism-based
test.context: in vivo
readout: half-life (h)
Answer with a number only, understood to be in h.

| entry.smiles | readout.unit | endpoint.value |
| --- | --- | --- |
| CCc1nc(C)cn2nc(-c3cc(=O)n4cc(C5CCN(C)CC5)cc(C)c4n3)cc12 | h | 12 |
| Cc1cn2cc(-c3cc(=O)n4cc(N5CCN(C)CC5)ccc4n3)cc(C)c2n1 | h | 6 |

Prompt: Provide measured half-life value, entry: `Cc1cn2cc(-c3cc(=O)n4cc(N5CCN(C)CC5)ccc4n3)cc(F)c2n1`
Completion: 4
